targetEntity: recombinant human SAE enzyme (Homo sapiens (Human))
Sequence (Q9UBT2 whole entry): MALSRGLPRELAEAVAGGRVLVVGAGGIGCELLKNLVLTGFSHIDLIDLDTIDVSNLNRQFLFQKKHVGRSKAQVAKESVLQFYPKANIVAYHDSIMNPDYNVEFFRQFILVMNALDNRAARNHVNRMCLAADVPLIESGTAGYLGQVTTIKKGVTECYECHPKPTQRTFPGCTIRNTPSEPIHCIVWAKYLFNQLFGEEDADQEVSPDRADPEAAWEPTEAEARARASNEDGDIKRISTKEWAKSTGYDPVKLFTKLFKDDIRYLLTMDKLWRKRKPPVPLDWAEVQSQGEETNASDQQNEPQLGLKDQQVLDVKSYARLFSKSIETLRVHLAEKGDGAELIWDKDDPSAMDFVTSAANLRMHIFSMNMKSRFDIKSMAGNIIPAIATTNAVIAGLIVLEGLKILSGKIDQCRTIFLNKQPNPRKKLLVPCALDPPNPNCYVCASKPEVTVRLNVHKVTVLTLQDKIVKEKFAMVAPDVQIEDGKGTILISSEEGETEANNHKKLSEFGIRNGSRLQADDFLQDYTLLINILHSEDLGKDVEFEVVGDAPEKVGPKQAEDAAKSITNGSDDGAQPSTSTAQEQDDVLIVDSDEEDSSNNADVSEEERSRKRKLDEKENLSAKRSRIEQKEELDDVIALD
Sequence (Q9UBE0 whole entry partner): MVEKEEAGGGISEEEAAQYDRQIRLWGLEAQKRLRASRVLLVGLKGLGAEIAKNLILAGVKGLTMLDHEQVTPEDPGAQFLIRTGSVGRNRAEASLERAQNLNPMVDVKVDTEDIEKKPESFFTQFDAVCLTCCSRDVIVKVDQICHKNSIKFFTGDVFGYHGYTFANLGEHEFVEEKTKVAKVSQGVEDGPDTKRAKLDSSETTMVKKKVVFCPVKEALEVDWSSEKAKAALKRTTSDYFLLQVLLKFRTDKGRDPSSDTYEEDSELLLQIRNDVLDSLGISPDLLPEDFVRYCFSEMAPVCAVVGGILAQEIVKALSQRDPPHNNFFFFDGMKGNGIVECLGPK
assayInfo: SAE HTRF enzyme assay
Assay type: biochemical
experimentalContext: class symbols A/B/C
pIC50: −log10 of the molar value.
Parameter: pIC50. Scope: all listed entries.

- NS(=O)(=O)OC[C@H]1C[C@@H](Nc2ncncc2C(=O)c2cc([C@@H]3SCCc4ccc(Cl)cc43)cs2)[C@H](O)[C@@H]1O (mixture of isomers): > 8.00

What measured pIC50 is associated with NS(=O)(=O)OC[C@H]1C[C@@H](Nc2ncncc2C(=O)c2ccc(S(=O)(=O)c3ccccc3)o2)C[C@@H]1O on recombinant human SAE enzyme (Homo sapiens (Human))?
6.00 to 7.00

What measured pIC50 is associated with CC(C)c1ccccc1OCc1csc(C(=O)c2cncnc2N[C@@H]2C[C@H](COS(N)(=O)=O)[C@@H](O)C2)c1 on recombinant human SAE enzyme (Homo sapiens (Human))?
7.00 to 8.00

What measured pIC50 is associated with C[C@](O)(c1csc(C(=O)c2cncnc2N[C@@H]2C[C@H](COS(N)(=O)=O)[C@@H](O)[C@H]2O)c1)c1cccc(Br)n1 (mixture of isomers) [I-1] on recombinant human SAE enzyme (Homo sapiens (Human))?
> 8.00

What measured pIC50 is associated with NS(=O)(=O)OC[C@H]1C[C@@H](Nc2ncncc2C(=O)c2cc([S@+]([O-])c3cccc(Cl)c3)c(Cl)s2)C[C@@H]1O on recombinant human SAE enzyme (Homo sapiens (Human))?
> 8.00

What measured pIC50 is associated with N[C@H](c1cccc(Cl)c1)c1csc(C(=O)c2cncnc2N[C@@H]2C[C@H](COS(N)(=O)=O)[C@@H](O)C2)c1 (single isomer, unassigned) [I-36a] on recombinant human SAE enzyme (Homo sapiens (Human))?
> 8.00

What measured pIC50 is associated with N[C@@H](c1cccc(Br)n1)c1cc(C(=O)c2cncnc2N[C@@H]2C[C@H](COS(N)(=O)=O)[C@@H](O)C2)sc1Cl (single isomer, unassigned) [I-18b] on recombinant human SAE enzyme (Homo sapiens (Human))?
> 8.00

What measured pIC50 is associated with Cc1sc(C(=O)c2cncnc2N[C@@H]2C[C@H](COS(N)(=O)=O)[C@@H](O)C2)cc1[C@H]1NCCc2ccc(Cl)cc21 [I-263b] on recombinant human SAE enzyme (Homo sapiens (Human))?
7.00 to 8.00

What measured pIC50 is associated with NS(=O)(=O)OC[C@H]1C[C@@H](Nc2ncncc2C(=O)c2cc(Cc3cccc(Cl)c3)c([C@@H]3CCCO3)s2)C[C@@H]1O (single isomer, unassigned) [I-41b] on recombinant human SAE enzyme (Homo sapiens (Human))?
> 8.00

What measured pIC50 is associated with NS(=O)(=O)OC[C@H]1C[C@@H](Nc2ncncc2C(=O)c2cc(CN3CCN(c4ccccc4)CC3)cs2)C[C@@H]1O on recombinant human SAE enzyme (Homo sapiens (Human))?
6.00 to 7.00

What measured pIC50 is associated with CN[C@H](c1cccc(Cl)c1)c1csc(C(=O)c2cncnc2N[C@@H]2C[C@H](COS(N)(=O)=O)[C@@H](O)C2)c1 (mixture of isomers) [I-47] on recombinant human SAE enzyme (Homo sapiens (Human))?
> 8.00

What measured pIC50 is associated with NS(=O)(=O)OC[C@H]1C[C@@H](Nc2ncncc2C(=O)c2cc(C3NCCc4ccc(Cl)cc43)cs2)C[C@@H]1O (single isomer, unassigned) [I-274a] on recombinant human SAE enzyme (Homo sapiens (Human))?
> 8.00
